# experiment_notes: logP by HPLC on reverse-phase column (EEC Directive 79/831 Annex V.A8)
# Type: physicochemical
# experimental_setup: reverse-phase C18 HPLC column, pH 2.7, HPLC, C18 reverse phase, 43° C., acidic range pH 2.7, calibration with alkan-2-ones
Please note: chromatographic logP exactly at 3 is No. Only values below 3 get Yes.

- compound: "NC1CCc2cc(/C=C/C(=O)NC(c3cccc(C(F)(F)F)c3)C(F)(F)F)ccc21 (stereo not drawn)"
  answer_label: "Yes"
- compound: "Nc1cccc(/C=C/C(=O)NC(c2cccc(C(F)(F)F)c2)C(F)(F)F)c1 (stereo not drawn)"
  answer_label: "Yes"
- compound: "O=C(/C=C/c1ccc(C(=O)NC2CC2)c(C(F)(F)F)c1)NC(c1cc(F)cc(C(F)(F)F)c1)C(F)(F)F (stereo not drawn)"
  answer_label: "No"
- compound: "O=C(/C=C/c1cc(C(F)(F)F)c(C(=O)NC2CC2)cn1)NC(c1cccc(C(F)(F)F)c1)C(F)(F)F (stereo not drawn)"
  answer_label: "No"
- compound: "O=C(/C=C/c1cccc([N+](=O)[O-])c1)NC(c1cccc(C(F)(F)F)c1)C(F)(F)F (stereo not drawn)"
  answer_label: "No"
- compound: "CC(C)(C)OC(=O)c1ccc2cc(C(=O)O)oc2c1"
  answer_label: "Yes"
- compound: "C=CCNC(=O)c1cc2cc(C(=O)NC(c3cccc(C(F)(F)F)c3)C(F)(F)F)n(C)c2cc1Cl (stereo not drawn)"
  answer_label: "No"
- compound: "ON=C(c1cc(F)cc(C(F)(F)F)c1)C(F)(F)F (racemic)"
  answer_label: "No"
- compound: "O=C(NC1CC1)c1ccc(I)cc1Cl [2-Chloro-N-cyclopropyl-4-iodobenzamide]"
  answer_label: "Yes"
- compound: "CCC(=O)NC(C)c1ccc(Br)cc1F (stereo not drawn)"
  answer_label: "Yes"
- compound: "O=C(/C=C/c1ccc(C(=O)O)c(Cl)c1)NC(c1cccc(C(F)(F)F)c1)C(F)(F)F (stereo not drawn)"
  answer_label: "No"
- compound: "CC(C)(C)OC(=O)NCc1ccc(Br)cc1C(F)(F)F"
  answer_label: "No"
- compound: "NC(c1cc(Cl)c(Cl)c(Cl)c1)C(F)(F)F (stereo not drawn)"
  answer_label: "No"
- compound: "C=CC(=O)NC(c1cccc(C(F)(F)F)c1)C(F)(F)F (stereo not drawn)"
  answer_label: "Yes"
- compound: "CC(=O)NCc1ccc2oc(C(=O)NC(c3cccc(C(F)(F)F)c3)C(F)(F)F)cc2c1 (stereo not drawn)"
  answer_label: "Yes"
- compound: "O=C(NC1CC1)c1cnc(I)cc1C(F)(F)F"
  answer_label: "Yes"
- compound: "O=C(NC1CC1)c1ccc2cc(C(=O)NC(c3cccc(C(F)(F)F)c3)C(F)(F)F)oc2c1 (stereo not drawn)"
  answer_label: "No"

The reported measurements were obtained from patent US8889878B2.
